Target: SIRT1 (Homo sapiens, UniProt Q96EB6)
Sequence (Q96EB6 1-747): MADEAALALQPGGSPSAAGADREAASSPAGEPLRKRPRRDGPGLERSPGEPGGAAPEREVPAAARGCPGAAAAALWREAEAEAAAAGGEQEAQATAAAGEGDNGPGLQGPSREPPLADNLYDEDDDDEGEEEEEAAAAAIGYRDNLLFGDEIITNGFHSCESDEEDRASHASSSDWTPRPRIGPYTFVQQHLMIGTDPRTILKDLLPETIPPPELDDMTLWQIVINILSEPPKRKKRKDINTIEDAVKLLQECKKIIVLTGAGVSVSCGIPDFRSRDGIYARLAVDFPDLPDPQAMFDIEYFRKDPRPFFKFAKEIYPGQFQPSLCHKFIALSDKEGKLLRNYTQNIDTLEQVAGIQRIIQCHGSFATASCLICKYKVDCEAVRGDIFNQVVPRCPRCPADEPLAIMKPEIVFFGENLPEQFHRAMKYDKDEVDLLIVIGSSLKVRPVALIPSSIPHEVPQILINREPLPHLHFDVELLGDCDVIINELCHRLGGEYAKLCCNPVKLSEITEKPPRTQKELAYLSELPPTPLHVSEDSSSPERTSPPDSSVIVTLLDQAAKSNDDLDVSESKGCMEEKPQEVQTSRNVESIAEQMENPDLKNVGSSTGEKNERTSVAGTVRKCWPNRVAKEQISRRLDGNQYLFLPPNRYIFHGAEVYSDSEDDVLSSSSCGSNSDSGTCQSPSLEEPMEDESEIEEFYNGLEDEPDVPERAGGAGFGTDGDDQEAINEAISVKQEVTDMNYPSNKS
Test: Mass spectrometry based assay of SIRT1 activity (deacetylation of a p53-based acetylated peptide)
Type: biochemical
Conditions: 10 nM SIRT1, 0.5 μM peptide substrate, 120 μM βNAD+, 25 minutes at 25° C.
Excerpt: A mass spectrometry based assay was used to identify modulators of SIRT1 activity. The mass spectrometry based assay utilizes a peptide having 20 amino acid residues as follows: Ac-EE-K(biotin)-GQSTSSHSK(Ac)NleSTEG-K(5TMR)-EE-NH2 (SEQ ID NO: 1) wherein K(Ac) is an acetylated lysine residue and Nle is a norleucine. The peptide is labeled with the fluorophore 5TMR (excitation 540 nm/emission 580 nm) at the C-terminus. The sequence of the peptide substrate is based on p53 with several modifications. […]
REPORTED_ENDPOINT: EC1.5 (concentration of test compound that results in 150% activation of SIRT1)

MOLECULE | RECORDED_MEASUREMENT
O=C(Nc1nc(CN2CCOCC2)cs1)C1CCCc2ccc(-c3cccc(C(F)(F)F)c3)nc21 (centres unmarked) [Compound 294] | A (EC1.5<10.0 μM)
O=C(NC1CCCc2ccc(-c3cccc(C(F)(F)F)c3)nc21)c1cccc(N2CCOCC2)n1 (centres unmarked) [Compound 236] | A (EC1.5<10.0 μM)
Cc1nc(NC(=O)C2CCCc3ccc(-c4cccc(C(F)(F)F)c4)nc32)sc1C (centres unmarked) [Compound 281] | C (EC1.5>25 μM)
O=C(NC1CCCc2ccc(-c3ccncc3)nc21)c1cnccn1 (centres unmarked) [Compound 247] | C (EC1.5>25 μM)
O=C(NC1CCCc2ccc(-c3cccc(C(F)(F)F)c3)nc21)c1ccnc(CN2CCOCC2)c1 (centres unmarked) [Compound 238] | C (EC1.5>25 μM)
Cc1cncc(-c2ccc3c(n2)C(NC(=O)c2cnccn2)CCC3)c1 (centres unmarked) [Compound 200] | C (EC1.5>25 μM)
O=C(NC1CCCc2ccc(-c3cccc(C(F)(F)F)c3)nc21)c1cncnc1 (centres unmarked) [Compound 233] | C (EC1.5>25 μM)

Every entry's value here was drawn from patent US20110263564A1.
